Biological target: Monoamine oxidase (Mus musculus, UniProt Q8BW75+Q64133)
Sequence (Q8BW75 whole entry): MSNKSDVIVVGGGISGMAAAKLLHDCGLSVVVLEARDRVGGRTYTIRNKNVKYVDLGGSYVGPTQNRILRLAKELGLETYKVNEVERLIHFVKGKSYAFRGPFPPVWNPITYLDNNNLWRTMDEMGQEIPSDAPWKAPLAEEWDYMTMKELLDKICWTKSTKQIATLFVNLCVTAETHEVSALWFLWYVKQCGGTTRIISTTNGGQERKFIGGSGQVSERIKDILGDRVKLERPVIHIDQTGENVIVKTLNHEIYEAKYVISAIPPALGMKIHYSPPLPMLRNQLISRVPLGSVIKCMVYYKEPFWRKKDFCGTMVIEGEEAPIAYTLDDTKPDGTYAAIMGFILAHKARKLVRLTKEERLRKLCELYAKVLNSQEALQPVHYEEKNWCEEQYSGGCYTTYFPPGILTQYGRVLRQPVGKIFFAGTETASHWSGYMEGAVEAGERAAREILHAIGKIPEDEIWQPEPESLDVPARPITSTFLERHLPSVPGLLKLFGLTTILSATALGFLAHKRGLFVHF
Sequence (Q64133 whole entry): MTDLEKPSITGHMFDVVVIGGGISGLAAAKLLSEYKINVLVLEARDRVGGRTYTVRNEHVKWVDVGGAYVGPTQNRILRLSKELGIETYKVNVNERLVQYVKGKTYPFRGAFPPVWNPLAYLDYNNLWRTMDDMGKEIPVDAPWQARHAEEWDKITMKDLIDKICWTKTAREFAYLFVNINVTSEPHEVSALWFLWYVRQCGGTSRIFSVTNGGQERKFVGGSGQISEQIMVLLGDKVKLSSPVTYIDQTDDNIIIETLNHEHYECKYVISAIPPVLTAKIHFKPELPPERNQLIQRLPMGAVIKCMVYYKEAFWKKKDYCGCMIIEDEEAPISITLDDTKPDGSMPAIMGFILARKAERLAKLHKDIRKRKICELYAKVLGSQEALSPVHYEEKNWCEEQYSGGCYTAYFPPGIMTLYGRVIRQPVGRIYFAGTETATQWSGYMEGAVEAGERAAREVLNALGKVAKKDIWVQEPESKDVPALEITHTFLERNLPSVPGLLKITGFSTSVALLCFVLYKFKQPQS
Test: Inhibitory activity of Monoamine oxidase at mouse forebrain homogenate by displacing [14C]5-HT
Format: tissue-based
Could you please report measured ED50 for the items listed next?

# input Supply measured ED50 of C=C=C(CNC)Cc1ccccc1 in your reply.
# output > 38 µM/kg

# input Look up and report measured ED50 for this entry: C=C=C(CN)c1ccccc1
# output > 39 µM/kg

# input Identify ED50 associated with the compound C=C=CCN(C)CCCOc1ccc(Cl)cc1Cl
# output 6 µM/kg

# input For the compound C#CCN(C)[C@H](C)Cc1ccccc1 , report ED50.
# output > 89 µM/kg

# input Check the records and state ED50 for C=C=C(CN)Cc1ccc(Cl)cc1
# output 18 µM/kg

# input Supply recorded ED50 for CC=C=CCN(C)Cc1ccccc1 here.
# output > 72 µM/kg

# input In one line, give reported ED50 of the entry C=C=CCN1CCc2ccccc2C1 .
# output > 90 µM/kg

# input Return ED50 (reported value) for this compound: C=C=CCN(C)C(C)Cc1ccccc1 (centres undefined)
# output > 69 µM/kg

# input Supply ED50 value. Item: C=C=CCNCc1ccccc1
# output > 51 µM/kg

# input Supply measured ED50 of CC=C=CCN(C)Cc1ccccc1.O=C(O)C(=O)O (stereo in doubt; (S)(+)2) in your reply.
# output > 72 µM/kg

# input Quote ED50 reported for C=C=C(CN)Cc1ccc(OC)cc1 please.
# output 39 µM/kg

# input Identify the reported ED50 for the following entry. C=C=C(Cc1ccccc1)CN(C)C
# output > 72 µM/kg

# input For the compound C=C=CCN(C)C1CCc2ccccc21 (centres undefined) , give its measured ED50 value.
# output 35 µM/kg

# input Tell me its ED50 given C=C=C(CN)Cc1ccc(C)cc1 as the entry.
# output > 38 µM/kg
